Reported GI50 values for a set of compounds
System: K562
The reply should be a number in µM, with the unit left off.

Solved cases below.
{"columns": ["compound", "GI50 [µM]"],
 "data": [
  ["CN1CCN(c2ccc(Nc3nc(Nc4ccccc4)c4ncn(CC5CC5)c4n3)cc2)CC1 [Compound I, reference compound]", 1.5],
  ["Cc1ccc(NC(=O)c2ccc(CN3CCN(C)CC3)cc2)cc1Nc1nccc(-c2cccnc2)n1 [Imatinib, reference compound]", 0.231],
  ["OCCN1CCN(c2ccc(Nc3nc(Nc4ccc(F)c(F)c4)c4ncn(CC5CC5)c4n3)cc2)CC1 [Compound 11c]", 0.9],
  ["CN1CCN(Cc2ccc(Nc3nc(Nc4ccc(F)c(F)c4)c4ncn(CC5CC5)c4n3)cc2)CC1", 1.4],
  ["CN1CCN(c2ccc(Nc3nc(Nc4ccc(F)c(F)c4)c4ncn(CC5CC5)c4n3)cc2)CC1 [III, reference compound]", 1.2],
  ["OCCN1CCN(c2ccc(Nc3nc(Nc4cccc(F)c4)c4ncn(CC5CC5)c4n3)cc2)CC1 [Compound 11b]", 0.7]
]}

Query: What value of GI50 has been reported for the following compound? CCCCCCn1cnc2c(Nc3ccc(F)c(F)c3)nc(Nc3ccc(N4CCN(CCO)CC4)cc3)nc21 [Compound 11i]
Reply: 3.1

* * *

Tested on: KBM5
measurement.protocol: Cytotoxicity assay (resazurin) on KBM5
Assay type: cell-based
measurement.parameters: Homo sapiens, KBM5; 72 h, resazurin assay; read-out: GI50 KBM5
readout.kind: GI50

Query: Endpoint output: GI50 of CN1CCN(c2ccc(Nc3nc(NCc4ccccc4)c4ncn(CC5CC5)c4n3)cc2)CC1 [Compound 13c] . Value?
Reply: > 20 µM

Query: Entry under review: CN1CCN(c2ccc(Nc3nc(NC4CCCCC4)c4ncn(CC5CC5)c4n3)cc2)CC1 [Compound 13b] . Reported GI50?
Reply: > 20 µM

Query: Look up GI50: CN1CCN(c2ccc(Nc3nc(N)c4ncn(CC5CC5)c4n3)cc2)CC1 [Compound 13a]
Reply: > 100 µM

* * *

Test system: KCL22 B10 (Y253H, 50%)
measurement.protocol: Cytotoxicity assay (resazurin) on KCL22 subclone B10
Type: cell-based
measurement.parameters: Homo sapiens, KCL-22, read-out: GI50 KCL22 B10 Y253H (50%), 72 h
readout.kind: GI50

These recorded examples may help you get a feel for the data.
{"columns": ["compound", "GI50"],
 "data": [
  ["Cc1ccc(NC(=O)c2ccc(CN3CCN(C)CC3)cc2)cc1Nc1nccc(-c2cccnc2)n1 [Imatinib, reference compound]", "> 20 µM"],
  ["CN1CCN(c2ccc(Nc3nc(NCc4ccccc4)c4ncn(CC5CC5)c4n3)cc2)CC1 [Compound 13c]", "> 20 µM"]
]}

Next:
Query: Endpoint output: GI50 of CN1CCN(c2ccc(Nc3nc(NC4CCCCC4)c4ncn(CC5CC5)c4n3)cc2)CC1 [Compound 13b] . Value?
Reply: > 20 µM
